Biological target: N-type Ca2+ channel (Homo sapiens)
Construct: host or cells: IMR-32 cells, differentiated with dibutyryl cAMP and bromodeoxyuridine
Sequence (Q00975 whole entry): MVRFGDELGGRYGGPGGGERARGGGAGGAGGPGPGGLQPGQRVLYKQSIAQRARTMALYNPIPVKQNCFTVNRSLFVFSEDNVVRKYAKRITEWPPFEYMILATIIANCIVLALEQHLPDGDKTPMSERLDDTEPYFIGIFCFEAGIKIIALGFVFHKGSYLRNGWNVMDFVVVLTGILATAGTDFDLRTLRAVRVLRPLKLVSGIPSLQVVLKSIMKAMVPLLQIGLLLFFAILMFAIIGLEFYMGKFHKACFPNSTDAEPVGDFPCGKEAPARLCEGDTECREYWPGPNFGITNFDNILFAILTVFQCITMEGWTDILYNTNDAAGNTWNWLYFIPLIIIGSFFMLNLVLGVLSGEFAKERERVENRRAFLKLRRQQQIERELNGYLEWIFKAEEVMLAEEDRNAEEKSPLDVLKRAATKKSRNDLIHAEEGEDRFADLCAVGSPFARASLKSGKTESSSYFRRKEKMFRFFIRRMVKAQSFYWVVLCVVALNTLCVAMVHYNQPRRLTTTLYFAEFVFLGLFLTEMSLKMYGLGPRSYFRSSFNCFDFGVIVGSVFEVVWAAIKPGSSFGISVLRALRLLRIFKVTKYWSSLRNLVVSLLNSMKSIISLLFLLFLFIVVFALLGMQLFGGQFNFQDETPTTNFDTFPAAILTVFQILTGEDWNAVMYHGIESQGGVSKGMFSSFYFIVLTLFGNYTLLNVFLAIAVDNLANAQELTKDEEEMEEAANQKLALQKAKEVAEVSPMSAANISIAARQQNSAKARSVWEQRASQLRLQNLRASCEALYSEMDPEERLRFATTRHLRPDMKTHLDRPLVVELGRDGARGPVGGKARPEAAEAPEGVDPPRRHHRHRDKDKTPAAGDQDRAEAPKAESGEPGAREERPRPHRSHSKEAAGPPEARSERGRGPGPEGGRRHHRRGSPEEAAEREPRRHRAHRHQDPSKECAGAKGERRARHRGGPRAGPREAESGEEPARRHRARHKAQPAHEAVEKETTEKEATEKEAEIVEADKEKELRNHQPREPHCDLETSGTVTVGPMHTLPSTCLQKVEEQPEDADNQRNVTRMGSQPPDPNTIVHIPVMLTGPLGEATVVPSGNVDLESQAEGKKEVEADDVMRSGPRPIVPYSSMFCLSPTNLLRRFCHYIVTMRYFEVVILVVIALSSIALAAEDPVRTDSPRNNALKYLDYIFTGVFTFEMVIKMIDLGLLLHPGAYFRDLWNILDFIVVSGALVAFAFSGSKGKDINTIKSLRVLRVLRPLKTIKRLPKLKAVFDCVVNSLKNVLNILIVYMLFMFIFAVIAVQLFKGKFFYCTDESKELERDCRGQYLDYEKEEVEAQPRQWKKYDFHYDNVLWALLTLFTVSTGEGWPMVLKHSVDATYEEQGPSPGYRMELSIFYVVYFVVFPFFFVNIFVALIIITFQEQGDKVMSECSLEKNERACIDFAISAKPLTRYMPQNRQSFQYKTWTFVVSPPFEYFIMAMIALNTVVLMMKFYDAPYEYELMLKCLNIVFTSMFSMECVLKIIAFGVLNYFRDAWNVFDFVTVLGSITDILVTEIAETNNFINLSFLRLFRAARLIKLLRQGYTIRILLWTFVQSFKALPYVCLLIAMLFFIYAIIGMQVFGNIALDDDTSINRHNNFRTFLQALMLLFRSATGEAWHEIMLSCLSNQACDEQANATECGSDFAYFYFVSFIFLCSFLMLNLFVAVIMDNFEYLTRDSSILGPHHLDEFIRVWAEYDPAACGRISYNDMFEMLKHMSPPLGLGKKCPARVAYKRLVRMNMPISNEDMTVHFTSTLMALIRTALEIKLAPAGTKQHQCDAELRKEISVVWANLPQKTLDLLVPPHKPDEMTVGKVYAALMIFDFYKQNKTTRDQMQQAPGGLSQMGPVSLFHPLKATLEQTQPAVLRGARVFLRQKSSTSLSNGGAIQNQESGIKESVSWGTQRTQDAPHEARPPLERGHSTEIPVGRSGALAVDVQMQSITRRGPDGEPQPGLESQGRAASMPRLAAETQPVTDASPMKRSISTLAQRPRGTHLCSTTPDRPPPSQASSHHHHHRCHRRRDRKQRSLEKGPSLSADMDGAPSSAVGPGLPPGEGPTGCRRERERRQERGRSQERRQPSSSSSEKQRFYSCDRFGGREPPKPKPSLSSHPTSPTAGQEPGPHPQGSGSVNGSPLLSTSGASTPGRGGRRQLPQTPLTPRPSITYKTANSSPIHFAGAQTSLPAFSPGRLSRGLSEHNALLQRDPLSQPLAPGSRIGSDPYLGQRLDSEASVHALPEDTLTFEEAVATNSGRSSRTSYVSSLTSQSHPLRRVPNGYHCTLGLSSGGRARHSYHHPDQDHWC
Sequence (P54289 25-956 partner limits assumed): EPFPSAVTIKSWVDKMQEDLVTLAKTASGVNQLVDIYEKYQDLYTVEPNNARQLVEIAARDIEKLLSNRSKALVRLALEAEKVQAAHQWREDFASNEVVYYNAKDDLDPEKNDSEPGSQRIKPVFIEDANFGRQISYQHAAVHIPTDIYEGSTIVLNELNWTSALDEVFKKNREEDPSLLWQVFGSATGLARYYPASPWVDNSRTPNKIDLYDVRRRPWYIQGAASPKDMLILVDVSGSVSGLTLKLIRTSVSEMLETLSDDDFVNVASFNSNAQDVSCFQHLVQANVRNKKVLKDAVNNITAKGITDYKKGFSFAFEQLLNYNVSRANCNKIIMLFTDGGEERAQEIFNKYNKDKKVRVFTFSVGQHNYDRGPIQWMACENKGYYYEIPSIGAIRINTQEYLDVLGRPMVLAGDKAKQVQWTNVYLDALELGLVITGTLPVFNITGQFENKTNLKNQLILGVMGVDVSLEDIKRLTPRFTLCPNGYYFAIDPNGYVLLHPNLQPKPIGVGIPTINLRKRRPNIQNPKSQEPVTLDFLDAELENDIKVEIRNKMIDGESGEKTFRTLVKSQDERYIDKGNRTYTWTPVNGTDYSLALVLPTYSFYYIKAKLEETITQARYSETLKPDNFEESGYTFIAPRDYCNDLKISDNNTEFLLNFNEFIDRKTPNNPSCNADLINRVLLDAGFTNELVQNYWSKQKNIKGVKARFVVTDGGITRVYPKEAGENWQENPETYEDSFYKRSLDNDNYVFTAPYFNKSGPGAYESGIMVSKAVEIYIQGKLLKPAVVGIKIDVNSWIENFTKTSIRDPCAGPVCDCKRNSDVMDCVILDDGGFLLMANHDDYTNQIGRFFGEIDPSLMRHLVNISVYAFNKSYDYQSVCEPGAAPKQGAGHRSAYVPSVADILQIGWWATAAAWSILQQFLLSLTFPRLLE
Sequence (P54289 957-1103 partner limits assumed): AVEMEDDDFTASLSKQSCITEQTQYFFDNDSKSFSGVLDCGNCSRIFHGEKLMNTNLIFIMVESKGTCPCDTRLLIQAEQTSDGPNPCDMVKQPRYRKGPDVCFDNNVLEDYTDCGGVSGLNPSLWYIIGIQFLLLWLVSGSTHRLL
Sequence (P54284 whole entry partner): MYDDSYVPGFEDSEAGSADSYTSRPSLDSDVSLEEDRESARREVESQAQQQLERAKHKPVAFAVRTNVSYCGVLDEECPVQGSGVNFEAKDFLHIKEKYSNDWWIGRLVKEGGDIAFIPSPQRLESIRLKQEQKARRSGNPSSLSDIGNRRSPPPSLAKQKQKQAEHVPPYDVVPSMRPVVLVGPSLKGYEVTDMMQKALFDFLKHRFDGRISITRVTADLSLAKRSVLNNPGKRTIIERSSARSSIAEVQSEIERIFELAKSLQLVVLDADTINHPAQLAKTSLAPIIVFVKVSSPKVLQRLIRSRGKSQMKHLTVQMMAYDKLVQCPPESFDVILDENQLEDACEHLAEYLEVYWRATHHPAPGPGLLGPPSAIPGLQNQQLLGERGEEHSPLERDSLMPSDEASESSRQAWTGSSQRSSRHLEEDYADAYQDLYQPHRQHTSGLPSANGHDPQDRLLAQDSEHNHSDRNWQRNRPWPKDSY
Assay: Measurement of N-type Ca2+ channel blocking potencies in IMR-32 cells using the fluorescent Ca2+ indicator Indo-1
Assay type: cell-based
Details: K+-stimulated Ca2+ flux, 5 μM nitrendipine to block L-type channels, some values marked (est.)
Procedure: Measurement of N-type Ca^2+ Channel Blocking Potencies of Compounds in IMR-32 Cells Using the Fluorescent Ca^2+ Indicator Indo-1 IMR-32 cells are a human tumoral cell line of neural origin. […] Calcium flux into these cells may be induced by stimulation with elevated potassium concentrations. The L-channel component of calcium flux may be blocked by adding 5 μM nitrendipine. […] Intracellular calcium concentrations are measured using the fluorescent calcium indicator Indo-1. […]
Each entry below lists one item and its recorded IC50 value.
The reply should be a number in nM, with the unit left off.

Here is how some molecules turned out for IC50.
* CC(C)(C)NC(=O)[C@H](Cc1ccc(OCc2ccccc2)cc1)NC(=O)[C@H](Cc1cccnc1)NC1C=CCCC1 (stereo partly drawn) [Example 4] | 1000
* CC(C)(C)NC(=O)[C@H](Cc1ccc(OCc2ccccc2)cc1)NC(=O)[C@H](Cc1cscn1)NC1C=CCCC1 (stereo partly drawn) [Example 6] | 1100
* CC(C)CCN[C@@H](Cc1ccncc1)C(=O)N[C@@H](Cc1ccc(OCc2ccccc2)cc1)C(=O)NC(C)(C)C [Example 1] | 400
* CC(C)(C)NC(=O)[C@H](Cc1ccc(OCc2ccccc2)cc1)NC(=O)[C@H](Cc1c[nH]cn1)NCC1CCCCC1 [Example 8] | 670
* CC(C)(C)NC(=O)[C@H](Cc1ccc(OCc2ccccc2)cc1)NC(=O)[C@H](Cc1ccncc1)NC1C=CCCC1 (stereo partly drawn) [Example 2] | 1300

With those in mind, consider the next molecule.
Tested on N-type Ca2+ channel (Homo sapiens): CC(C)CCN[C@@H](Cc1cccnc1)C(=O)NC(Cc1ccc(OCc2ccccc2)cc1)C(=O)NC(C)(C)C (stereo in doubt) [Example 3] . Observed IC50: 770

Origin of the recorded values: patent US6989448B2
